Experiment: Drug metabolism in BALB/c mouse whole blood assessed as whole blood phosphate area ratio at 10 uM after 4 hrs by LC/MS/MS analysis
Assay type: ADME, tissue-based
Value kind: Ratio
# print the numeric value only

Use the examples below as a reference point.
Identify the reported Ratio for the following entry. CCCCCCC1CCc2cc(C3CCC(N)(CO)C3)ccc2C1 (stereo in doubt; 3c) 0.14

Identify the reported Ratio for the following entry. CCCCCCC1CCc2cc(C3CCC(N)(CO)C3)ccc2C1 (stereo in doubt; 3h) 0.17

Further cases:
Identify the reported Ratio for the following entry. CCCCCCC1CCc2cc(C3CCC(N)(CO)C3)ccc2C1 (stereo in doubt; 3a) 0.07

----------
Measured EC50 of individual entries
System: Mus musculus
Assay: Reduction of blood lymphocyte level in BALB/c mouse administered through oral gavage after 24 hrs by hematology analysis
Type: functional, organism-based
Give the value, in units of nM, as a plain number.

Identify the reported EC50 for the following entry. CCCCCCCCc1ccc(CCC(N)(CO)COP(=O)(O)O)cc1 (configuration not stated) 5.6

Next compound, EC50 to be filled in.
Identify the reported EC50 for the following entry. `CCCCCC[C@@H]1CCc2cc([C@H]3CC[C@](N)(COP(=O)(O)O)C3)ccc2C1` 7.9

----------
Target: Sphingosine 1-phosphate receptor 5 (Homo sapiens, UniProt Q9H228)
Sequence (Q9H228 whole entry): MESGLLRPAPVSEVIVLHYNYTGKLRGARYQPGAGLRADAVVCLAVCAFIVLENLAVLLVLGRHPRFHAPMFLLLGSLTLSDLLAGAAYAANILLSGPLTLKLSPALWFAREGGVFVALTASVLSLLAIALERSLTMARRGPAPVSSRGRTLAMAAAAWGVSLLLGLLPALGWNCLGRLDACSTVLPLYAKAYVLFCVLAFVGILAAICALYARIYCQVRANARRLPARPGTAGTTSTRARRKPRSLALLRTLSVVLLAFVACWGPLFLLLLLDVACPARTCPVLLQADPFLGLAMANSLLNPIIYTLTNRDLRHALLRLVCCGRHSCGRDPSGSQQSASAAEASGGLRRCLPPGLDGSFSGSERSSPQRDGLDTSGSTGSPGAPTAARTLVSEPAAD
Assay: Agonist activity at human S1P5 receptor by GTPgammaS binding assay
Value kind: pEC50
Conceptually, pEC50 converts a concentration in mol/L into minus its log10.

Identify the reported pEC50 for the following entry. `CCCCCC[C@@H]1CCc2cc([C@H]3CC[C@](N)(COP(=O)(O)O)C3)ccc2C1` 7.97

----------
Biological target: Sphingosine 1-phosphate receptor 1 (Homo sapiens, UniProt P21453)
Sequence (P21453 whole entry): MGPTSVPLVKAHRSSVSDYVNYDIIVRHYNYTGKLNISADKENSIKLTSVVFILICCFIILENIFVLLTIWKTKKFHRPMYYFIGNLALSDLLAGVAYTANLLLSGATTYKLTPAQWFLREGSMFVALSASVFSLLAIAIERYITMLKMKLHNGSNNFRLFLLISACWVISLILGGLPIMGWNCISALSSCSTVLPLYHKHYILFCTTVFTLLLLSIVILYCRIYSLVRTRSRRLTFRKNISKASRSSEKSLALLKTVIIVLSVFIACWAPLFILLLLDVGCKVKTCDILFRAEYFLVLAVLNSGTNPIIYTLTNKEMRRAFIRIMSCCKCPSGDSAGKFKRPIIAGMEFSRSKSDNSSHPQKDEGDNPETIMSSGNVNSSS
Experiment: Agonist activity at human S1P1 receptor expressed in CHO cells assessed as cAMP accumulation after 30 mins by HTRF analysis
Assay type: functional, cell-based
Value kind: EC50 (pM)
Give the value, in units of pM, as a plain number.

Identify the reported EC50 for the following entry. `CCCCCC[C@@H]1CCc2cc([C@H]3CC[C@](N)(COP(=O)(O)O)C3)ccc2C1` 6

----------
Assay: Oral bioavailability in mouse at 1 mg/kg
Type: ADME, organism-based
Details: in vivo
Value kind: bioavailability (%)
Give the value, in units of %, as a plain number.

Identify the reported bioavailability for the following entry. `CCCCCC[C@@H]1CCc2cc([C@H]3CC[C@](N)(CO)C3)ccc2C1` 65

----------
Molecular target: Sphingosine 1-phosphate receptor 3 (Homo sapiens, UniProt Q99500)
Sequence (Q99500 whole entry): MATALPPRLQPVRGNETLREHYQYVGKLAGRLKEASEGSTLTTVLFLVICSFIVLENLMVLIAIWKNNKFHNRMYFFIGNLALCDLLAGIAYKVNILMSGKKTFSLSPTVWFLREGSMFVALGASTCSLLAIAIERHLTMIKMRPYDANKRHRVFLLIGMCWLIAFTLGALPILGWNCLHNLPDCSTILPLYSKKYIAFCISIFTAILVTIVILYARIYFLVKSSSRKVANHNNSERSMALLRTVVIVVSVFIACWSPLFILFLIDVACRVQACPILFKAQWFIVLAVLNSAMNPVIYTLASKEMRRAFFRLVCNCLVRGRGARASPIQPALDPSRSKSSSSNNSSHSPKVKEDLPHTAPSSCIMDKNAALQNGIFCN
Assay: Antagonist activity at human S1P3 receptor by GTPgammaS binding assay
Value kind: IC50

Identify the reported IC50 for the following entry. `CCCCCC[C@@H]1CCc2cc([C@H]3CC[C@](N)(COP(=O)(O)O)C3)ccc2C1` > 1000 nM

----------
Measured Drug metabolism of individual entries
Tested on: Blood
Test: Drug metabolism in BALB/c mouse blood assessed as formation of phosphate ester metabolite at 10 mg/kg administered through oral gavage after 4 hrs by LC/MS/MS analysis
Assay type: ADME, organism-based
Conditions: in vivo
Give the value, in units of nM, as a plain number.

Identify the reported Drug metabolism for the following entry. CCCCCCC1CCc2cc(C3CCC(N)(CO)C3)ccc2C1 (stereo in doubt; 3c) 12

Identify the reported Drug metabolism for the following entry. `CCCCCC[C@@H]1CCc2cc([C@H]3CC[C@](N)(CO)C3)ccc2C1` 41

Next molecule, Drug metabolism to be filled in.
Identify the reported Drug metabolism for the following entry. CCCCCCC1CCc2cc(C3CCC(N)(CO)C3)ccc2C1 (stereo in doubt; 3b) 67

----------
Biological target: Sphingosine 1-phosphate receptor 1 (Homo sapiens, UniProt P21453)
Test: Agonist activity at human S1P1 receptor expressed in CHO cells co-expressing GFP assessed as cellular internalization after 45 mins by Hoechst assay
Format: cell-based
Value kind: pEC50
Conceptually, pEC50 converts a concentration in mol/L into minus its log10.

Identify the reported pEC50 for the following entry. `CCCCCC[C@@H]1CCc2cc([C@H]3CC[C@](N)(COP(=O)(O)O)C3)ccc2C1` 9.94

----------
Measured pEC50 of individual entries
Target: Sphingosine 1-phosphate receptor 4 (Homo sapiens)
Sequence (O95977 whole entry): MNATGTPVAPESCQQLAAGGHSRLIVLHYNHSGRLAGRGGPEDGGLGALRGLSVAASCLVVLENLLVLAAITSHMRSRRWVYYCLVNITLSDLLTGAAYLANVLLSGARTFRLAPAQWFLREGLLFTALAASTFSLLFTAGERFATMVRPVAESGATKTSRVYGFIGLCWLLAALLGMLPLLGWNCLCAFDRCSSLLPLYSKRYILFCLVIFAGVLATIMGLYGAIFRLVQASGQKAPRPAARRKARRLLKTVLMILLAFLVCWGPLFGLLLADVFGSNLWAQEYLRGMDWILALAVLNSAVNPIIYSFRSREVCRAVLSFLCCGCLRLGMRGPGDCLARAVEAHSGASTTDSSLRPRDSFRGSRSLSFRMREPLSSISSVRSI
Assay: Agonist activity at human S1P4 receptor by GTPgammaS binding assay
Conceptually, pEC50 converts a concentration in mol/L into minus its log10.

Identify the reported pEC50 for the following entry. CCCCCCCCc1ccc(CCC(N)(CO)COP(=O)(O)O)cc1 (configuration not stated) 10.05

Next compound, pEC50 to be filled in.
Identify the reported pEC50 for the following entry. `CCCCCC[C@@H]1CCc2cc([C@H]3CC[C@](N)(COP(=O)(O)O)C3)ccc2C1` 7.98

----------
Tested on: Mus musculus
Assay: Reduction of blood lymphocyte level in BALB/c mouse at 1 mg/kg administered through oral gavage after 24 hrs by hematology analysis
Type: functional
Set-up: scale not given: the % may be the effect or the level left
Value kind: Activity (%)
Give the value, in units of %, as a plain number.

Use the examples below as a reference point.
Find the measured Activity of CCCCCCC1CCc2cc(C3CCC(N)(CO)C3)ccc2C1 (stereo in doubt; 3h) with Mus musculus as test system. 60

Find the measured Activity of `CCCCCC[C@@H]1CCc2cc([C@H]3CC[C@](N)(CO)C3)ccc2C1` with Mus musculus as test system. 88

Find the measured Activity of CCCCCCC1CCc2cc(C3CCC(N)(CO)C3)ccc2C1 (stereo in doubt; 3b) with Mus musculus as test system. 90

Find the measured Activity of CCCCCCC1CCc2cc(C3CCC(N)(CO)C3)ccc2C1 (stereo in doubt; 3a) with Mus musculus as test system. 12

Find the measured Activity of CCCCCCC1CCc2cc(C3CCC(N)(CO)C3)ccc2C1 (stereo in doubt; 3f) with Mus musculus as test system. 80

Further cases:
Find the measured Activity of CCCCCCC1CCc2cc(C3CCC(N)(CO)C3)ccc2C1 (stereo in doubt; 3c) with Mus musculus as test system. 18

----------
System: Blood
Assay: Drug metabolism in BALB/c mouse blood assessed as formation of phosphate ester metabolite at 10 mg/kg administered through oral gavage after 24 hrs by LC/MS/MS analysis
Assay type: ADME, organism-based
Settings: in vivo
Value kind: Drug metabolism
Don't forget the unit after the number, please.

Use the examples below as a reference point.
Identify the reported Drug metabolism for the following entry. `CCCCCC[C@@H]1CCc2cc([C@H]3CC[C@](N)(CO)C3)ccc2C1` 202 nM

Identify the reported Drug metabolism for the following entry. CCCCCCC1CCc2cc(C3CCC(N)(CO)C3)ccc2C1 (stereo in doubt; 3a) 14 nM

Identify the reported Drug metabolism for the following entry. CCCCCCC1CCc2cc(C3CCC(N)(CO)C3)ccc2C1 (stereo in doubt; 3c) 46 nM

Next compound, Drug metabolism to be filled in.
Identify the reported Drug metabolism for the following entry. CCCCCCC1CCc2cc(C3CCC(N)(CO)C3)ccc2C1 (stereo in doubt; 3b) 475 nM

----------
Assay: Volume of distribution at steady state in mouse at 0.5 mg/kg, iv
Format: ADME, organism-based
Conditions: in vivo, read-out: Vdss
Value kind: Vd (L/kg)
Give the value, in units of L/kg, as a plain number.

Identify the reported Vd for the following entry. `CCCCCC[C@@H]1CCc2cc([C@H]3CC[C@](N)(CO)C3)ccc2C1` 60

----------
Target: Sphingosine 1-phosphate receptor 3 (Homo sapiens)
Assay: Agonist activity at human S1P3 receptor by GTPgammaS binding assay
pEC50: −log10 of the molar value.
Value kind: pEC50

Identify the reported pEC50 for the following entry. `CCCCCC[C@@H]1CCc2cc([C@H]3CC[C@](N)(COP(=O)(O)O)C3)ccc2C1` < 6.00
